Value source: PubChem BioAssay (NCI)

Entries and their growth inhibition values follow.
assay: NCI Yeast Anticancer Drug Screen. Data for the sgs1 mgt1 strain (AID 161);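 also: 0% = growth of cultures given vehicle only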; conditions: S. cerevisiae sgs1 mgt1 strain, at 50.0 µM, hits give high values
This is part of a sample that, as a whole, favours compounds with a hit. Of some 79,000 tested, about 15% had one in any assay.
Give your result in % as a bare value.

Consider the following illustrative entries.
MOLECULE	U	growth inhibition
CC12CCC(NC(=O)C3CCCN3C(=O)OCc3ccccc3)CC1CCC1C2CCC2(C)C(NC(=O)C3CCCN3C(=O)OCc3ccccc3)CCC12 (centres undefined)	%	-19.4
CC1OC1C(=O)C1(O)C(C)C(O)C23OC2(C(O)c2c(O)cccc2C3=O)C1O (centres undefined)	%	8.65
O=C(O)c1ccccn1	%	33.8
CCC/C=C/c1cc2c(cc1O)CC[C@@H]1[C@@H]2CC[C@]2(C)[C@@H](O)CC[C@@H]12	%	45.6

Input: Identify measured growth inhibition associated with Nc1cc([N+](=O)[O-])cc(S(=O)(=O)O)c1O
Output: -14.2

Input: Input O=[N+]([O-])c1cccc(/C=C/C=C/c2ccc(Cl)c(Cl)c2)c1 , output reported growth inhibition.
Output: 30.3

Input: Write down growth inhibition measured for item Cc1cc2c(=O)cc(-c3ccc(C(=O)O)cc3)oc2c(C(N)=O)c1C
Output: 23.6

Input: Determine from records and report growth inhibition for Nc1[nH]c(=S)nc2snnc12
Output: 9.4

Input: Respond only with growth inhibition recorded for CS/N=C(\c1ccccc1)N(C)C
Output: -1.45

Input: Give the reported value of growth inhibition for this record: CC1(C)COC(C23C4C5C2C2C3C4C52I)=N1 (centres undefined)
Output: 11.2

Input: Hello, please tell me recorded growth inhibition for this one: O=C(O)CCC(=O)Nc1ccc(S(=O)(=O)Nc2nccs2)cc1
Output: -16.5

Input: Please look at this molecule and report its growth inhibition: Cc1ccc(C(=O)c2ccccc2C(=O)O)cc1C
Output: -17.9

Input: Give growth inhibition for O=S1(=O)c2ccccc2N2CCCc3cc(Cl)cc1c32
Output: -41.7

---

assay: NCI Yeast Anticancer Drug Screen. Data for the rad50 strain (AID 155);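 also: 0% = growth of vehicle-only cultures of the same strain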; conditions: S. cerevisiae rad50 strain growth inhibition; at 50.0 µM; hits give high values
Compounds without any hit were thinned out: in the full panel of roughly 79,000, 15% have a hit.
The threshold is inclusive: growth inhibition of exactly 10% counts as Yes; values below receive No.

MOLECULE	LABEL CLASS
CCCC[Si](C)(C)CCCC	No

Input: Form field: growth inhibition at least 10%? Entry: C=C(C)COc1ccc(-c2ccccc2)cc1
Output: Yes

Input: Record Cc1ccc(NC(=O)c2ccc(Cl)cc2)cc1 ; criterion: growth inhibition no lower than 10%. Met?
Output: No

Input: State whether the measured growth inhibition reaches 10%, counting equality as reaching it, for O=C1c2ccccc2C(=O)c2c1ccc1c2N=C(c2ccc(Br)cc2)CC(c2cccc3ccccc23)N1 (stereo not given)
Output: No

Input: Textbook exercise: given the entry CCC(C(=O)O)C(C)(C)O (stereo not given) , state whether its growth inhibition is greater than or equal to 10%.
Output: No

Input: Dear colleague, could you confirm whether CCCCNc1nc2c(=O)n(C)c(=O)n(C)c2s1 has growth inhibition at or above 10%?
Output: No

Input: Item COC(=O)[CH2][Ge]([c]1ccccc1)[c]1ccccc1.COC(=O)[CH2][Ge]([c]1ccccc1)[c]1ccccc1 with growth inhibition of 10% or above?
Output: Yes
